Source of measurements: ChEMBL document CHEMBL4387733

Quick reference: Activity of the listed items.
# study_system: UniProt:O14842
# Sequence (O14842 whole entry): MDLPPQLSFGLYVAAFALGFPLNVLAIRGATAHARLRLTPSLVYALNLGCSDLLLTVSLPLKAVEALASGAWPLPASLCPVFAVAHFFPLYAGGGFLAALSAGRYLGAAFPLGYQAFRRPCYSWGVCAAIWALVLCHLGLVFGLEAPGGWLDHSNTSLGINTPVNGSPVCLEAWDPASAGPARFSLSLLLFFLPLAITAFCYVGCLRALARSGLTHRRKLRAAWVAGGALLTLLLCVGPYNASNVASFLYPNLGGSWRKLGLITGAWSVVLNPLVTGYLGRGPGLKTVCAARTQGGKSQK
# method_notes: Positive allosteric modulation of recombinant human GPR40 expressed in HEK293 cells assessed as increase in [3H]-myo-inositol phosphate accumulation measured after 60 mins in absence of human serum by microbeta counting method relative to control
# Assay type: functional, cell-based
# Set-up: concentration or dose not given beside the values
A number alone suffices; assume %.

compound_structure_string: COc1ccc(F)c(-c2ccc3c(c2F)CC[C@H]3Oc2cccc([C@H](C3CC3)[C@H](C)C(=O)O)c2)c1
Activity [%]: 352
--
compound_structure_string: COc1ccc(F)c(-c2ccc3c(n2)CC[C@H]3Oc2cccc([C@H](C3CC3)[C@H](C)C(=O)O)c2)c1
Activity [%]: 366

IN: Dear colleague, I am looking for the recorded Activity of the following compound: COc1ccc(F)c(-c2ccc3c(c2C2=CCCC2(C)C)CC[C@H]3Oc2cccc([C@H](C3CC3)[C@H](C)C(=O)O)c2)c1
OUT: 101

IN: Dear colleague, I am looking for the recorded Activity of the following compound: COc1ccc(F)c(-c2ccc3c(c2)CC[C@H]3Oc2cccc([C@@H](CC(=O)O)C3CC3)c2)c1
OUT: 352

IN: Dear colleague, I am looking for the recorded Activity of the following compound: COc1ccc(F)c(-c2ccc3c(c2)CC[C@H]3Oc2cccc([C@H](C3CC3)[C@@H](C)C(=O)O)c2)c1
OUT: 377

IN: Dear colleague, I am looking for the recorded Activity of the following compound: COc1ccc(F)c(-c2ccc3c(c2)CC[C@H]3Oc2cccc([C@H](C3CC3)[C@H](C)C(=O)O)c2F)c1
OUT: 395

IN: Dear colleague, I am looking for the recorded Activity of the following compound: COc1ccc(F)c(-c2cc(F)c3c(c2)CC[C@H]3Oc2cccc([C@@H](CC(=O)O)C3CC3)c2)c1
OUT: 224

IN: Dear colleague, I am looking for the recorded Activity of the following compound: COc1cc(-c2ccc3c(c2)CC[C@H]3Oc2cccc([C@H](C3CC3)[C@H](C)C(=O)O)c2)ccn1
OUT: 448
